System: snake venom phosphodiesterase
protocol: Stability in presence of snake venom phosphodiesterase assessed as parent compound degradation at 7 ug incubated for 2 hrs by HPLC analysis
Assay type: ADME
condition-parameters: snake venom phosphodiesterase, read-out: Drug degradation

| structure-smiles-string | metabolised at 2 h, 7 ug |
| --- | --- |
| Nc1ncnc2c1ncn2[C@H]1C[C@@H]2OP(=O)(O)OC[C@H]3O[C@@H](n4cnc5c(O)ncnc54)C[C@@H]3OP(=O)(O)OC[C@H]2O1 | < 40% |

====

tested-target: ENPP1 (ectonucleotide pyrophosphatase/phosphodiesterase family member 1) (Homo sapiens, UniProt P22413)
Sequence (P22413 whole entry): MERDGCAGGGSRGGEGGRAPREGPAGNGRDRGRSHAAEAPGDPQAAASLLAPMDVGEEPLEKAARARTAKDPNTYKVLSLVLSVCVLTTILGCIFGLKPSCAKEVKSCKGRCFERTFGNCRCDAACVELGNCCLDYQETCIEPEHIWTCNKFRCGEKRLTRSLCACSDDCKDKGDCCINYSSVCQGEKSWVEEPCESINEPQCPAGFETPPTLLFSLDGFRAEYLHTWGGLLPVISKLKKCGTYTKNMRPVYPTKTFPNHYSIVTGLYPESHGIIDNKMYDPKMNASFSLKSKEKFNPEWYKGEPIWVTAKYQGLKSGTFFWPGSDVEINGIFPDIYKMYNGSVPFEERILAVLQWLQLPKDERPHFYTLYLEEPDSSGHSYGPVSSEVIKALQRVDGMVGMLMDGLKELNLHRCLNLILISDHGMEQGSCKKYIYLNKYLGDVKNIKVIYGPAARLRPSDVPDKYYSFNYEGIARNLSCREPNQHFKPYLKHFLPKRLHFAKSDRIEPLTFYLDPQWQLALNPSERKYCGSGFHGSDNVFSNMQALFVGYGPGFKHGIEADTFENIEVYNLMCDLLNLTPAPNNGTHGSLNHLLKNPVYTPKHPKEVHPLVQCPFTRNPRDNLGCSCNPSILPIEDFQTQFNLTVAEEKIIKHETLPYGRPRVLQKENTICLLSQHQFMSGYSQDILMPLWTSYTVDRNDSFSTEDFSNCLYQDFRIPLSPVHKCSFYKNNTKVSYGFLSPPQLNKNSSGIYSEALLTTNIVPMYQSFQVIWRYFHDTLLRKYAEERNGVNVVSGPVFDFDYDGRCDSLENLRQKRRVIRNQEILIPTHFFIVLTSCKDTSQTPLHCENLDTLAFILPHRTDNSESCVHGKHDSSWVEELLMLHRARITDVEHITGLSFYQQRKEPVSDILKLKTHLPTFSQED
protocol: Stability in presence of ENPP1 ( unknown origin) assessed as half life by HPLC analysis
condition-parameters: ENPP1 (isolated enzyme, unknown origin)
The following compounds are shown together with reported half-life values.

| structure-smiles-string | uom | half-life |
| --- | --- | --- |
| Nc1nc2c(ncn2[C@@H]2O[C@@H]3COP(=O)(O)O[C@H]4[C@@H](O)[C@H](n5cnc6c(N)ncnc65)O[C@@H]4COP(=O)(O)O[C@@H]2C3)c(=O)[nH]1 | h | 1 |
| Nc1nc2c(ncn2[C@@H]2O[C@@H]3COP(=O)(O)O[C@H]4[C@@H](O)[C@H](n5cnc6c(N)ncnc65)O[C@@H]4COP(=O)(O)O[C@@H]2[C@@H]3O)c(=O)[nH]1 | h | 1 |

====

tested-target: Stimulator of interferon genes protein (Mus musculus)
Sequence (whole entry): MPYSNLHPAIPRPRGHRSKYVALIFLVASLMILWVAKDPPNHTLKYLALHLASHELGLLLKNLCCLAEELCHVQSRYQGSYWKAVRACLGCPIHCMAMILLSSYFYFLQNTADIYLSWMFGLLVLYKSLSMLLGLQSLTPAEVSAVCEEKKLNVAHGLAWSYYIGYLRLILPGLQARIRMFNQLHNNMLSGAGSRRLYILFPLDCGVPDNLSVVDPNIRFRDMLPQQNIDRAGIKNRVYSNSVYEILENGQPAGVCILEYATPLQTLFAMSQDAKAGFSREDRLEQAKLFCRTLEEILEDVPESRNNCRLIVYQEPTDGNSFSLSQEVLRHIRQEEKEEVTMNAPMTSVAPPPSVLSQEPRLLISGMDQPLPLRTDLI
protocol: Activation of STING in mouse RAW-Lucia ISG cells assessed as induction of type I IFNs stimulation by measuring induction of IRF pathway incubated for 48 hrs by luciferase reporter gene assay relative to 2',3'-cGAMP
Format: cell-based
condition-parameters: filed as activator

| structure-smiles-string | tested-target | Emax |
| --- | --- | --- |
| Nc1ncnc2c1ncn2[C@@H]1O[C@@H]2COP(=O)(O)O[C@H]3C[C@H](n4cnc5c(O)ncnc54)O[C@@H]3COP(=O)(O)O[C@H]2[C@H]1F | Stimulator of interferon genes protein (Mus musculus) | 99% |
| Nc1ncnc2c1ncn2[C@H]1C[C@@H]2OP(=O)(O)OC[C@H]3O[C@@H](n4cnc5c(O)ncnc54)[C@H](F)[C@@H]3OP(=O)(O)OC[C@H]2O1 | Stimulator of interferon genes protein (Mus musculus) | 93% |
| Nc1ncnc2c1ncn2[C@@H]1O[C@@H]2COP(=O)(O)O[C@@H]3[C@H](O)[C@@H](COP(=O)(O)O[C@@H]1[C@@H]2O)O[C@H]3n1cnc2c(O)ncnc21 | Stimulator of interferon genes protein (Mus musculus) | 95% |
| Nc1ncnc2c1ncn2[C@@H]1O[C@@H]2COP(=O)(O)O[C@H]3[C@@H](F)[C@H](n4cnc5c(O)ncnc54)O[C@@H]3COP(=O)(O)O[C@H]2[C@H]1F | Stimulator of interferon genes protein (Mus musculus) | 90% |
| Nc1ncnc2c1ncn2[C@H]1C[C@@H]2OP(=O)(O)OC[C@H]3O[C@@H](n4cnc5c(O)ncnc54)C[C@@H]3OP(=O)(O)OC[C@H]2O1 | Stimulator of interferon genes protein (Mus musculus) | 91% |
| Nc1ncnc2c1ncn2[C@@H]1O[C@@H]2COP(=O)(O)O[C@@H]3[C@H](O)[C@@H](COP(=O)(O)O[C@H]2[C@H]1O)O[C@H]3n1cnc2c(=O)[nH]cnc21 | Stimulator of interferon genes protein (Mus musculus) | 85% |

Source: ChEMBL document CHEMBL4715794
